Entry source: patent US10597388B2

Tested on: johnsongrass (Sorghum halepense)
Test: Test C greenhouse herbicide test, pre- and postemergence
Format: in vivo
Settings: postemergence, 62 g ai/ha; scale 0 to 100, 0 no effect, 100 complete control
Here, each record is paired with measured Johnsongrass plant response rating data.

Molecule | Johnsongrass plant response rating
COc1nn(C)c(=O)c(-c2c(C)sc3ccccc23)c1O [Compound 33] | 5
Cc1cc(C)c2sc(C)c(-c3c(OC(=O)OC(C)C)c(C)nn(C)c3=O)c2c1 [Compound 67] | 5
COc1ccc2ccccc2c1-c1c(O)c(C)nn(C)c1=O [Compound 40] | 5
COc1nn(C)c(=O)c(-c2c(C)sc3ccc(Cl)cc23)c1O [Compound 100] | 0
Cc1nn(C)c(=O)c(-c2c(C)sc3ccccc23)c1O [Compound 65] | 5
Cc1ccc2ccccc2c1-c1c(O)cnn(C)c1=O [Compound 56] | 0
COC(=O)Oc1c(C)nn(C)c(=O)c1-c1c(C)sc2c(C)cc(C)cc12 [Compound 81] | 5
CC(=O)Oc1c(C#N)nn(C)c(=O)c1-c1c(C)ccc2ccccc12 [Compound 98] | 5
CCC(=O)Oc1c(C)nn(C)c(=O)c1-c1c(C)sc2ccc(C)cc12 [Compound 42] | 5
CCOC(=O)Oc1c(C)nn(C)c(=O)c1-c1c(C)sc2ccc(C)cc12 [Compound 82] | 5
CCOC(=O)Oc1c(C)nn(C)c(=O)c1-c1c(C)sc2c(C)cc(C)cc12 [Compound 83] | 5
